Data origin, for the record: patent US20250388688A1

Target: soluble TSHR protein (ELISA coat) (human, UniProt P16473 22-260, limits assumed)
Test: ELISA, plate coated with soluble TSHR, antibody at 300 nM, anti-human IgG Fc-HRP;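 further: TSHR coated at 2 µg/ml, bound antibody revealed by goat anti-human IgG Fc HRP, color developed with TMB and stopped with H2SO4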
In this section, each of the binders is paired with its reported ELISA (OD 450) at 300 nM.
# value in OD 450; strip the unit string

Record excerpt, results attached:
- TSHB-5 (antibody, V domains shown) VH: EVQLVQSGAEVKKPGESLKISCKASGYQLTDNWIGWVRQKPGKGLEWMGIIYPGDSDTRYSPSFQGQVTISADKSISTAYLQWSSLKASDTAIYYCVGLDWNYNPLRYWGQGTLVTVSS VL: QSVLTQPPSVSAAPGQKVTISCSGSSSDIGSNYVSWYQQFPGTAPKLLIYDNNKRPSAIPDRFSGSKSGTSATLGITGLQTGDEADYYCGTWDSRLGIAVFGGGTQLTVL: 0.578
- TSHB-14 (antibody, V domains shown) VH: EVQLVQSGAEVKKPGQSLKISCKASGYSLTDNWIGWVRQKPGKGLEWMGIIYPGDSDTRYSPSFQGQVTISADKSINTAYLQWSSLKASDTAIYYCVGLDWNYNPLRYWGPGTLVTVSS VL: QSVLTQPPSVSAAPGQKVTISCSGSSSDIGSNYVSWYQQLPGTAPKLLIYDNNKRPSGIPDRFSGSKSGTSATLGITGLQTGDEADYYCGTWDSRWGIAVFGGGTQLTVL: 0.572

Entry TSHB-4 (antibody, V domains shown) VH: EVQLVQSGAEVKKPGESLKISCKASGYELTDNWIGWVRQKPGKGLEWMGIIYPGDSDTRYSPSFQGQVTISADKSISTAYLQWSSLKASDTAIYYCVGLDWNYNPLRYWGQGTLVTVSS VL: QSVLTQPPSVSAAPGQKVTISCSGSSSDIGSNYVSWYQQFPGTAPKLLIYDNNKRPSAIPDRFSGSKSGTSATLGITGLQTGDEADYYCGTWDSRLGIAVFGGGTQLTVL — recorded ELISA (OD 450) at 300 nM = 0.542

Entry TSHB-25 (antibody, V domains shown) VH: EVQLVQSGAEVKKPGASVKVSCKASGYSLTDNWIGWVRQAPGQGLEWMGIIYPGDSDTRYAQKFQGRVTMTADKSTSTVYMELSSLRSEDTAVYYCVGLDWNYNPLRYWGQGTLVTVSS VL: QSVLTQPPSVSGAPGQRVTISCSGSSSDIGSNYVSWYQQLPGTAPKLLIYDNNKRPSGVPDRFSGSKSGTSASLAITGLQAEDEADYYCGTWDSRLGIAVFGGGTKLTVL — recorded ELISA (OD 450) at 300 nM = 0.367

Entry TSHB-24 (antibody, V domains shown) VH: EVQLVQSGAEVKKPGESLKISCKASGYSLTDNWIGWVRQKPGKGLEWMGIIYPGDSDTRYSPSFQGQVTISADKSISTAYLQWSSLKASDTAIYYCVGLDWNYNPLRYWGQGTLVTVSS VL: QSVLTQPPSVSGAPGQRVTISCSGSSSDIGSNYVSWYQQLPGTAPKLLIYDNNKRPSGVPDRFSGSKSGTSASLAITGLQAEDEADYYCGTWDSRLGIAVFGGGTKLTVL — recorded ELISA (OD 450) at 300 nM = 0.54
